experiment: Antiproliferative activity against human MCF-10A cells assessed as reduction in cell viability after 48 hrs by MTT assay; format: toxicity, cell-based
measurement_type: IC50 at 48 h (µM)
Answer format: numeric, µM implied, no suffix.

Guide cases for IC50 at 48 h, answers given:
mol	observed
CCCCCCCCOC(=O)/C=C/[C@H](C)[C@H]1CC[C@]2(C)C[C@@H]3C(C)=CC(=O)[C@H]3/C(C=O)=C\C[C@@H]12	1.57
CC(C)=C/C=C\[C@H](C)[C@H]1CC[C@]2(C)C[C@@H]3C(C)=CC(=O)[C@H]3/C(C=O)=C\C[C@@H]12	3.68

Now turn to the next compound.
State the recorded IC50 at 48 h for this entry: CCCCCCCCCOC(=O)/C=C\C=C/[C@H](C)[C@H]1CC[C@]2(C)C[C@@H]3C(C)=CC(=O)[C@H]3/C(C=O)=C\C[C@@H]12
4.83
